Attribution: patent US10106538B2

molecular target: LCK (Homo sapiens); construct: purchased Carna Biosciences; experiment: Off-chip Mobility Shift Assay (MSA) kinase inhibition; format: biochemical; settings: inhibitor concentration 0.1 μM
Sequence (P06239 whole entry): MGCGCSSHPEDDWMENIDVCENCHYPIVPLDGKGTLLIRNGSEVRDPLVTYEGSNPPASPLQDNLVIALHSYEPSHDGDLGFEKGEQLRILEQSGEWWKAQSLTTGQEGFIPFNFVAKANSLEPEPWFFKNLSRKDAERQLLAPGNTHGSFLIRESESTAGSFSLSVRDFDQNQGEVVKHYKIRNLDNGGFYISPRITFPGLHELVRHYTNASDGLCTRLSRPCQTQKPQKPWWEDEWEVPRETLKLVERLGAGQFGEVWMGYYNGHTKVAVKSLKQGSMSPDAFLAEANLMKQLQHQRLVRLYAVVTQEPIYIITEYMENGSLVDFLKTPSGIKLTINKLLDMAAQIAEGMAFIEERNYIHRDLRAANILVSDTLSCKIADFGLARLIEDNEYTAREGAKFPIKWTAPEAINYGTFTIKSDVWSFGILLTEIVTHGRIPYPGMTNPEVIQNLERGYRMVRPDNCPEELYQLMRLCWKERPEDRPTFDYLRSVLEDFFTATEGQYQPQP
Quick reference: inhibition at 0.1 µM of the listed items.

Query: Reported inhibition at 0.1 µM, molecule O=C(c1c(F)ccc(NS(=O)(=O)CC(O)CO)c1F)c1c[nH]c2ncc(-c3ccc(Cl)cc3)cc12 (stereo not shown) [200-73] : ____
Result: < 30%

Query: Would you mind doing CC(O)CS(=O)(=O)Nc1ccc(F)c(C(=O)c2c[nH]c3ncc(-c4ccc(Cl)cc4)cc23)c1F (stereo not shown) [200-115] as well?
Result: > 30%

Query: Would you mind doing O=C(c1c(F)ccc(NS(=O)(=O)CCCO)c1F)c1c[nH]c2ncc(-c3ccc(Cl)cc3)cc12 [200-17] as well?
Result: > 50%

Query: Would you mind doing CC(=O)CS(=O)(=O)Nc1ccc(F)c(C(=O)c2c[nH]c3ncc(-c4ccc(Cl)cc4)cc23)c1F [200-117] as well?
Result: > 30%
